target: recombinant human mPGES-1 (Homo sapiens (Human)); assay: mPGES-1 enzyme assay (HTRF detection of PGE2); assay type: biochemical; details: recombinant human mPGES-1 microsomes, PGH2 2 μM, 60 seconds; read-out: mPGES-1 inhibitory effect IC50 in the enzyme assay
Sequence (O14684 whole entry): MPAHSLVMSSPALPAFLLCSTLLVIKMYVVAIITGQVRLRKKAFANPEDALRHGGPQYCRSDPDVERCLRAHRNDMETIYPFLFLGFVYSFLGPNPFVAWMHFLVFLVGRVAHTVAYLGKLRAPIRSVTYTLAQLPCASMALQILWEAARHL
pIC50: −log10 of the molar value.
The reader will find reported pIC50 values listed item by item below.
measure: pIC50

# compound, measure, valueObserved
records = [
    ("Cn1c(Nc2c(Cl)ccc(CNC(=O)C(C)(C)C)c2Cl)nc2cc(C(=O)Nc3cc(C(C)(C)C)on3)c(N3CCC(C(F)(F)F)CC3)cc21 [Example 159]", "pIC50", 8.52),
    ("Cn1c(Nc2c(Cl)ccc(CNC(=O)C(C)(C)C)c2Cl)nc2cc(C(=O)N[C@H]3CC[C@H](C(F)(F)F)CC3)c(N3CC4(CCC4)C3)cc21 [Example 94]", "pIC50", 8.40),
    ("Cn1c(Nc2c(Cl)ccc(CNC(=O)C(C)(C)F)c2Cl)nc2cc(C(=O)N[C@H]3CC[C@H](C(F)(F)F)CC3)c(N3CCC(C(F)(F)F)CC3)cc21 [Example 249]", "pIC50", 8.38),
    ("Cn1c(Nc2c(Cl)ccc(CNC(=O)[C@@](C)(O)C(F)(F)F)c2Cl)nc2cc(C(=O)NC3CC(F)(F)C3)c(N3CCC(C(F)(F)F)CC3)cc21 [Example 258]", "pIC50", 8.66),
    ("Cn1c(Nc2c(Cl)ccc(CNC(=O)C(C)(C)C)c2Cl)nc2cc(C(=O)NCCC(F)(F)F)c(N3CC4CC4C3)cc21 (stereo not drawn) [Example 135]", "pIC50", 8.52),
    ("Cn1c(Nc2c(Cl)ccc(CNC(=O)C(C)(C)F)c2Cl)nc2cc(C(=O)Nc3ccc(OC(F)(F)F)cc3)c(N3CCC(C(F)(F)F)CC3)cc21 [Example 237]", "pIC50", 8.74),
]
